Target: Type-2 angiotensin II receptor (Rattus norvegicus)
Sequence (P35351 whole entry): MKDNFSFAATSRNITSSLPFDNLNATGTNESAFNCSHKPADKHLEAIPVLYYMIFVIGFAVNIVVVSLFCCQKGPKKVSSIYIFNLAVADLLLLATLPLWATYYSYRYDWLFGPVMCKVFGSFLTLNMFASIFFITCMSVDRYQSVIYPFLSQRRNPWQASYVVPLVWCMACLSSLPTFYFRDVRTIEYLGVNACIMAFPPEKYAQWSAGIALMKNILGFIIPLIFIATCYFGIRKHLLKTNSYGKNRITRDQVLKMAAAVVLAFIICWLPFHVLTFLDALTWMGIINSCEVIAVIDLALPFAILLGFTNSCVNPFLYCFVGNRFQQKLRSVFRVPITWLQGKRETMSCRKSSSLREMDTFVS
Experiment: Displacement of […][Sar1,IIe8]AII from rat midbrain angiotensin II (AT2) receptor
Mark y only for IC50 values smaller than 400 nM; exact matches and larger values are n.

Solved cases below.
CCCc1cc(Cn2c(CC)nc3c(C)cc(C)nc32)cc(CCC)c1OC(C(=O)O)c1ccc(Cl)cc1 (stereo unspecified) = n
CCCc1cc(Cn2c(CC)nc3c(C)cc(C)nc32)cc(CCC)c1OC(C(=O)O)c1ccc(Oc2ccccc2)cc1 (stereo unspecified) = n
CCCc1cc(Cn2c(CC)nc3c(C)cc(C)nc32)cc(CCC)c1OC(C(=O)O)c1ccccc1C (stereo unspecified) = n
CCCc1cc(Cn2c(CC)nc3c(C)cc(C)nc32)cc(CCC)c1OC(C(=O)O)c1ccc(CC)cc1 (stereo unspecified) = y

Data request: Below 400 nM on IC50? Entry CCCc1cc(Cn2c(CC)nc3c(C)cc(C)nc32)cc(CCC)c1OC(C(=O)O)c1cccc(Oc2ccccc2)c1 (stereo unspecified)
Data returned: n
